- measurement description: in vivo
- conditions used: rat, plasma, po, 10 mg/kg
measured metric: Cmax (µM)

[
  {
    "molecule": "CCc1nc(CN(C)C(=O)NC(C(=O)N[C@@H](Cc2ccccc2)C[C@H](O)[C@H](Cc2ccccc2)NC(=O)OCc2cncs2)C(C)C)co1 (stereo partly drawn)",
    "quantity unit": "µM",
    "Cmax": 8.01
  }
]

I: CC(C)C(NC(=O)N(C)Cc1csc(C2CC2)n1)C(=O)N[C@@H](Cc1ccccc1)[C@@H](O)C[C@H](Cc1ccccc1)NC(=O)OCc1cncs1 (stereo partly drawn)
II: CC(C)C(NC(=O)N(C)Cc1csc(C(C)(C)C)n1)C(=O)N[C@@H](Cc1ccccc1)C[C@H](O)[C@H](Cc1ccccc1)NC(=O)OCc1cccnc1 (stereo partly drawn)
Endpoint returns the identifier whose Cmax is numerically larger, either I or II . Identify your selection by its label.
I
(I: 3.98 µM, II: 0.38 µM)

I: COc1ccc(COC(=O)NC(C(=O)N[C@@H](Cc2ccccc2)[C@@H](O)C[C@H](Cc2ccccc2)NC(=O)OCc2cccnc2)C(C)C)cn1 (stereo partly drawn)
II: CC(C)C(NC(=O)OCc1ccccn1)C(=O)N[C@@H](Cc1ccccc1)C[C@H](O)[C@H](Cc1ccccc1)NC(=O)OCc1cncs1 (stereo partly drawn)
III: CC(C)C(NC(=O)N(C)Cc1cscn1)C(=O)N[C@@H](Cc1ccccc1)[C@@H](O)C[C@H](Cc1ccccc1)NC(=O)OCc1cccnc1 (stereo partly drawn)
Hello, I need these entries ordered by Cmax, highest reading first. Thanks! Write the labels, ordered according to the request.
III, II, I
(III: 3.13 µM, II: 2.04 µM, I: 0.56 µM)

a: CC(C)c1csc(COC(=O)NC(C(=O)N[C@@H](Cc2ccccc2)C[C@H](O)[C@H](Cc2ccccc2)NC(=O)OCc2cncs2)C(C)C)n1 (stereo partly drawn)
b: Cc1cccc(COC(=O)NC(C(=O)N[C@@H](Cc2ccccc2)[C@@H](O)C[C@H](Cc2ccccc2)NC(=O)OCc2cccnc2)C(C)C)n1 (stereo partly drawn)
Lower Cmax: a or b ? Reply briefly: the label of your chosen item.
b

a: CC(C)C(NC(=O)OCc1ccccn1)C(=O)N[C@@H](Cc1ccccc1)[C@@H](O)C[C@H](Cc1ccccc1)NC(=O)OCc1cncs1 (stereo partly drawn)
b: Cc1cnc(COC(=O)NC(C(=O)N[C@@H](Cc2ccccc2)[C@@H](O)C[C@H](Cc2ccccc2)NC(=O)OCc2cccnc2)C(C)C)cn1 (stereo partly drawn)
Between a and b , which one shows the smaller Cmax number? State your choice using its label.
b
(b: 0.35 µM, a: 2.98 µM)

Sourced from ChEMBL document CHEMBL1131475
